Measurement Protocol: Stability in acidic and basic conditions (TLC)
Format: physicochemical
Condition Set: basic conditions, 2 h; 1 = stable
# Lookup of reported Number of TLC spots keyed by entry
Property Label: Number of TLC spots

{"Smiles Code": "NC1=N/C(=C\\c2ccc(-c3ccccc3)cc2)C(=O)N1CCCN1CCOCC1", "Property Label": "Number of TLC spots", "Result Number": 1}
{"Smiles Code": "O=C1NC(N2CCC(N3CCOCC3)CC2)=N/C1=C\\c1ccc(Oc2ccccc2)cc1", "Property Label": "Number of TLC spots", "Result Number": 1}
{"Smiles Code": "NC1=N/C(=C\\c2ccc3c(c2)Cc2ccccc2-3)C(=O)N1CCCN1CCOCC1", "Property Label": "Number of TLC spots", "Result Number": 4}
